A collection of molecules and their measured MIC
Test system: E. coli AG100
ASSAY PROTOCOL: Broth microdilution MIC, E. coli AG100 (wild-type parent)
Format: cell-based
RUN CONDITIONS: Escherichia coli; wild-type parent E. coli AG100, broth microdilution; read-out: MIC E. coli AG100

MOLECULE | MIC
CCN1CCN(C(=O)NC(C(=O)N[C@H]2Cc3cccc(C(=O)O)c3OB2O)c2ncccn2)C(=O)C1=O (stereo partly shown) | 32 to 64 µg/mL
Nc1nc(C(NS(=O)(=O)c2cccnc2)C(=O)N[C@H]2Cc3cccc(C(=O)O)c3OB2O)cs1 (stereo partly shown) | > 128 µg/mL
CCN1CCN(C(=O)NC(C(=O)N[C@H]2Cc3cccc(C(=O)O)c3OB2O)c2ccc(O)c(S(N)(=O)=O)c2)C(=O)C1=O (stereo partly shown) | 32 to 64 µg/mL
CCN1CCN(C(=O)NC(C(=O)N[C@H]2Cc3cccc(C(=O)O)c3OB2O)c2ncc(O)cc2C)C(=O)C1=O (stereo partly shown) | > 128 µg/mL

----------
Tested on: K. pneumoniae 848844
ASSAY PROTOCOL: microbe, parasite or virus in culture
Type: cell-based, Klebsiella pneumoniae
RUN CONDITIONS: Klebsiella pneumoniae; K. pneumoniae 848844 producing SHV-11 and KPC-2; read-out: MIC K. pneumoniae 848844
A collection of compounds and their measured MIC

COMPOUND | MIC
CCN1CCN(C(=O)NC(C(=O)N[C@H]2Cc3cccc(C(=O)O)c3OB2O)c2ccc(O)c(O)n2)C(=O)C1=O (stereo partly drawn) | 32 to 64 µg/mL
CCN1CCN(C(=O)NC(C(=O)N[C@H]2Cc3cccc(C(=O)[O-])c3OB2O)c2ccc[n+](CC(N)=O)c2)C(=O)C1=O (stereo partly drawn) | 32 to 64 µg/mL
CCN1CCN(C(=O)NC(C(=O)N[C@H]2Cc3cccc(C(=O)O)c3OB2O)c2ncc(C(=O)NCCO)cc2F)C(=O)C1=O (stereo partly drawn) | > 128 µg/mL

----------
Test system: E. coli AG100
ASSAY PROTOCOL: Broth microdilution MIC, E. coli AG100 (wild-type parent)
Type: cell-based
RUN CONDITIONS: Escherichia coli; wild-type parent E. coli AG100, broth microdilution; read-out: MIC E. coli AG100
A collection of compounds and their measured MIC
PROPERTY MEASURED: MIC

COMPOUND | MEASURED VALUE
NS(=O)(=O)c1ccc(C(NC(=O)N2CCN(CCF)C(=O)C2=O)C(=O)N[C@H]2Cc3ccc(F)c(C(=O)O)c3OB2O)cc1 (stereo partly shown) [Example 182] | > 128 µg/mL
CCN1CCN(C(=O)N[C@@H](C(=O)N[C@H]2Cc3cccc(C(=O)O)c3OB2O)c2ccc(O)c(F)c2)C(=O)C1=O [Example 156] | 32 to 64 µg/mL
CCN1C[C@H](C)N(C(=O)NC(C(=O)N[C@H]2Cc3ccc(F)c(C(=O)O)c3OB2O)c2ncc(O)cc2F)C(=O)C1=O (stereo partly shown) [Example 208] | 8 to 16 µg/mL
CCN1CCN(C(=O)NC(C(=O)N[C@H]2Cc3cccc(C(=O)O)c3OB2O)c2ccc(O)c([N+](=O)[O-])c2)C(=O)C1=O (stereo partly shown) [Example 247] | 32 to 64 µg/mL

----------
System: P. aeruginosa PAO1
ASSAY PROTOCOL: Broth microdilution MIC, P. aeruginosa PAO1
Format: cell-based
RUN CONDITIONS: Pseudomonas aeruginosa; P. aeruginosa PAO1, broth microdilution; read-out: MIC P. aeruginosa PAO1
A collection of molecules and their measured MIC
PROPERTY MEASURED: MIC

MOLECULE | PROPERTY MEASURED | MEASURED VALUE
C[C@H]1CN(CCO)C(=O)C(=O)N1C(=O)NC(C(=O)N[C@H]1Cc2cccc(C(=O)O)c2OB1O)c1ccc(O)c(O)c1Cl (stereo partly drawn) | MIC | 8 to 16 µg/mL
CCN1C[C@H](C)N(C(=O)NC(C(=O)N[C@H]2Cc3ccc(F)c(C(=O)O)c3OB2O)c2ncc(O)cc2F)C(=O)C1=O (stereo partly drawn) | MIC | > 128 µg/mL
CCN1CCN(C(=O)N[C@@H](C(=O)N[C@H]2Cc3ccc(F)c(C(=O)O)c3OB2O)c2ccc(O)c(O)c2Cl)C(=O)C1=O | MIC | < 0.25 µg/mL
CCN1CCN(C(=O)N[C@@H](C(=O)N[C@H]2Cc3cccc(C(=O)O)c3OB2O)c2ccc(O)c(O)c2Cl)C(=O)C1=O | MIC | 0.5 to 1 µg/mL
CCN1CCN(C(=O)NC(C(=O)N[C@H]2Cc3ccc(F)c(C(=O)O)c3OB2O)c2ccc(O)cn2)C(=O)C1=O (stereo partly drawn) | MIC | > 128 µg/mL
CCN1CCN(C(=O)NC(C(=O)N[C@H]2Cc3ccc(F)c(C(=O)O)c3OB2O)c2ccc(O)c(O)c2F)C(=O)C1=O (stereo partly drawn) | MIC | 2 to 4 µg/mL

----------
System: E. coli AG100A
ASSAY PROTOCOL: microbe, parasite or virus in culture
Type: cell-based
RUN CONDITIONS: Escherichia coli, read-out: MIC E. coli AG100A
A collection of compounds and their measured MIC
PROPERTY MEASURED: MIC

COMPOUND | SYSTEM | MEASURED VALUE
CCN1CCN(C(=O)NC(C(=O)N[C@H]2Cc3cccc(C(=O)O)c3OB2O)c2ncc(C(=O)NCCO)cc2F)C(=O)C1=O (stereo partly shown) | E. coli AG100A | 8 to 16 µg/mL
NCCCN1CCN(C(=O)N[C@@H](C(=O)N[C@H]2Cc3cccc(C(=O)O)c3OB2O)c2ncc(O)cc2F)C(=O)C1=O | E. coli AG100A | 0.5 to 1 µg/mL
CCN1CCN(C(=O)NC(C(=O)N[C@H]2Cc3cccc(C(=O)O)c3OB2O)c2csc(N)n2)C(=O)C1=O (stereo partly shown) | E. coli AG100A | 2 to 4 µg/mL
CCN1CCN(C(=O)NC(C(=O)N[C@H]2Cc3cccc(C(=O)O)c3OB2O)c2ccc(S(N)(=O)=O)cc2F)C(=O)C1=O (stereo partly shown) | E. coli AG100A | 2 to 4 µg/mL

----------
A collection of molecules and their measured MIC
Tested on: E. coli AG100
ASSAY PROTOCOL: Broth microdilution MIC, E. coli AG100 (wild-type parent)
Format: cell-based
RUN CONDITIONS: Escherichia coli; wild-type parent E. coli AG100, broth microdilution; read-out: MIC E. coli AG100

MOLECULE | MIC
CCN1CCN(C(=O)NC(C(=O)N[C@H]2Cc3cccc(C(=O)O)c3OB2O)c2csc(N)n2)C(=O)C1=O (stereo partly shown) [Example 5] | 8 to 16 µg/mL
CCN1CC(C)(C)N(C(=O)NC(C(=O)N[C@H]2Cc3cccc(C(=O)O)c3OB2O)c2ncc(O)cc2F)C(=O)C1=O (stereo partly shown) [Example 245] | > 128 µg/mL
CCN1CCN(C(=O)NC(C(=O)N[C@H]2Cc3ccc(F)c(C(=O)O)c3OB2O)c2ccc(O)c(O)c2Cl)C(=O)C1=O (stereo partly shown) [Example 124] | 0.5 to 1 µg/mL
CCNC(=O)NCCN1CCN(C(=O)NC(C(=O)N[C@H]2Cc3cccc(C(=O)O)c3OB2O)c2ccc(O)c(O)c2Cl)C(=O)C1=O (stereo partly shown) [Example 235] | 8 to 16 µg/mL
NS(=O)(=O)c1ccc(C(NC(=O)N2CCN(CCF)C(=O)C2=O)C(=O)N[C@H]2Cc3cccc(C(=O)O)c3OB2O)cc1 (stereo partly shown) [Example 103] | 8 to 16 µg/mL
CCN1CCN(C(=O)NC(C(=O)N[C@H]2Cc3cccc(C(=O)O)c3OB2O)c2ncc(C(N)=O)cc2F)C(=O)C1=O (stereo partly shown) [Example 246] | > 128 µg/mL
CCCN1CCN(C(=O)NC(C(=O)N[C@H]2Cc3ccc(F)c(C(=O)O)c3OB2O)c2ccc(O)c(O)c2Cl)C(=O)C1=O (stereo partly shown) [Example 125] | 2 to 4 µg/mL
CCN1CCN(C(=O)NC(C(=O)N[C@H]2Cc3ccc(F)c(C(=O)O)c3OB2O)c2ccc(O)c(O)c2F)C(=O)C1=O (stereo partly shown) [Example 149] | 2 to 4 µg/mL
CCN1CCN(C(=O)N[C@@H](C(=O)N[C@H]2Cc3ccc(F)c(C(=O)O)c3OB2O)c2ccc(O)c(O)c2Cl)C(=O)C1=O [Example 189] | 2 to 4 µg/mL
CCN1CCN(C(=O)NC(C(=O)N[C@H]2Cc3ccc(F)c(C(=O)O)c3OB2O)c2cc(O)c(O)cc2F)C(=O)C1=O (stereo partly shown) [Example 136] | 2 to 4 µg/mL
CCN1CCN(C(=O)N[C@@H](C(=O)N[C@H]2Cc3cccc(C(=O)O)c3OB2O)c2ncc(O)cc2F)C(=O)C1=O [Example 177] | 8 to 16 µg/mL
CCN1CCN(C(=O)NC(C(=O)N[C@H]2Cc3cccc(C(=O)O)c3OB2O)c2cc(O)c(O)cc2F)C(=O)C1=O (stereo partly shown) [Example 90] | 8 to 16 µg/mL
CCN1CCN(C(=O)NC(C(=O)N[C@H]2Cc3cccc(C(=O)O)c3OB2O)c2ccc(S(N)(=O)=O)c(F)c2)C(=O)C1=O (stereo partly shown) [Example 210] | 32 to 64 µg/mL

Origin of measurements: patent US12173018B2
